Test system: AS120
protocol text: qHTS profiling for inhibitors of Plasmodium falciparum proliferation (AID 504749); further: nearly all actives have a fitted effect of over 60% in size
condition: P. falciparum in erythrocytes, SYBR Green DNA, 72 h; series mostly up to 28.7 µM
Inconclusive results are not listed. Activity calls are given as the source filed them. The call rests on the fitted dose curve; in most records, active means well fitted inhibition curve with a large enough effect; inconclusive means small, poorly fitted or top-dose-only effect; inactive means flat fitted curve, though single readings scatter.
The categories you may choose from are Y = active, N = inactive

IN: Dear colleague, could you share the recorded outcome for CCN1CCCC1=O when you have a moment?
OUT: N

IN: Dear colleague, could you share the recorded outcome for CC1=C(C(=O)OC(C)C)C(c2cccc([N+](=O)[O-])c2)C(C(=O)OC2CN(C(c3ccccc3)c3ccccc3)C2)=C(N)N1 (stereo unspecified) when you have a moment?
OUT: Y

IN: Dear colleague, could you share the recorded outcome for CCCCCCCCCCCCCCCCCC(=O)OCC(O)CO (stereo unspecified) when you have a moment?
OUT: N

IN: Dear colleague, could you share the recorded outcome for CCCCOc1ccc(OCCCN2CCOCC2)cc1 when you have a moment?
OUT: N

IN: Dear colleague, could you share the recorded outcome for C[C@@H]1C[C@H]2[C@@H]3CCC4=CC(=O)C=C[C@]4(C)[C@@]3(F)[C@@H](O)C[C@]2(C)[C@H]1C(=O)CO when you have a moment?
OUT: N

IN: Dear colleague, could you share the recorded outcome for COc1ccc(CCN2CCC(Nc3nc4ccccc4n3Cc3ccc(F)cc3)CC2)cc1 when you have a moment?
OUT: Y

IN: Dear colleague, could you share the recorded outcome for COC1=CC(=O)C[C@@H](C)[C@]12Oc1c(Cl)c(OC)cc(OC)c1C2=O when you have a moment?
OUT: N

IN: Dear colleague, could you share the recorded outcome for NCCCC[C@H](N[C@@H](CCc1ccccc1)C(=O)O)C(=O)N1CCC[C@H]1C(=O)O when you have a moment?
OUT: N
